- PROTOCOL_NOTES: p53 small molecule agonists, cell-based qHTS assay with human liver microsomes (AID 1963577);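 note: p53 response element beta-lactamase reporter cells with liver microsomes plus NADPH; % is set by controls: 0 for no effect and ±100 for the full control effect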
- MEASUREMENT_SETUP: HCT-116 p53RE-bla with human liver microsomes, ratio, 16 h; series mostly up to 66 µM
Results filed as inconclusive are left out. The source made the active and inactive calls. Calls come from the whole dose curve.
QUANTITY_KIND: activation

Some compounds with recorded activation:
COMPOUND | ASSAY_RESULT
Cc1c(C2(c3cc(Br)c(O)c(Br)c3C)OS(=O)(=O)c3ccccc32)cc(Br)c(O)c1Br | inactive
CC(=O)Nc1ccc(OCC(O)CNC(C)C)cc1 (stereo unspecified) | inactive
Cc1ccc2sc3cccc(C)c3c2c1 | inactive
C=C(C)C(=O)OCC(O)CO (stereo unspecified) | inactive
CCN1CC(CCN2CCOCC2)C(c2ccccc2)(c2ccccc2)C1=O (stereo unspecified) | inactive
COc1ccc2nc(SCc3ncc(C)c(OC)c3C)[nH]c2c1 | inactive
COc1ccc(N)c([N+](=O)[O-])c1 | inactive
CC1=C(/C=C/C(C)=C/C=C/C(C)=C\C(=O)O)C(C)(C)CCC1 | inactive
N=C(N)c1ccc(OCCCOc2ccc(C(=N)N)cc2)cc1 | inactive
CN1C[C@H](C(=O)N[C@]2(C)O[C@@]3(O)[C@@H]4CCCN4C(=O)[C@H](Cc4ccccc4)N3C2=O)C[C@@H]2c3cccc4[nH]cc(c34)C[C@H]21 | inactive

Exercise: What does the record list as activation for `CCN(CC)C(C)=O` ?
Key: inactive

* * *

- PROTOCOL_NOTES: p53 small molecule agonists, cell-based qHTS assay with human liver microsomes (AID 1963577);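 note: p53 response element beta-lactamase reporter cells with liver microsomes plus NADPH; % is set by controls: 0 for no effect and ±100 for the full control effect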
- MEASUREMENT_SETUP: HCT-116 p53RE-bla with human liver microsomes, ratio, 16 h; series mostly up to 66 µM
Records with an inconclusive call do not appear. The source made the active and inactive calls. Calls follow the shape of the full dose curve.
QUANTITY_KIND: activation

COMPOUND | ASSAY_RESULT
CC(CN1CC(=O)NC(=O)C1)N1CC(=O)NC(=O)C1 (stereo unspecified) | inactive
Cc1ccc(-n2nc(C(C)(C)C)cc2NC(=O)Nc2ccc(OCCN3CCOCC3)c3ccccc23)cc1 | inactive
CC(=O)CC(c1ccc([N+](=O)[O-])cc1)c1c(O)c2ccccc2oc1=O (stereo unspecified) | inactive
CN=C(NC#N)Nc1ccc(C2=NNC(=O)CC2C)cc1 (stereo unspecified) | inactive
O=C(NCCN1CCOCC1)c1ccc(Cl)cc1 | inactive

Batch request: activation for each of the following compounds.
1. CCCCCCCC
2. O=C(CCCCCCCCc1cccnc1)N1CCC(C=C(c2ccccc2)c2ccccc2)CC1
3. Cc1cccc(C)c1NC(=O)CN1CCCC1
4. CCN(CC)CCNC(=O)c1cc(Br)c(N)cc1OC
5. CCN1CCCC1CNC(=O)c1cc(S(N)(=O)=O)ccc1OC (stereo unspecified)
6. COC(=O)[C@@H]1[C@H]2C[C@H]3c4[nH]c5ccccc5c4CCN3C[C@@H]2CC[C@@H]1O

Key:
1. inactive
2. inactive
3. inactive
4. inactive
5. inactive
6. inactive

* * *

- PROTOCOL_NOTES: Nuclear factor erythroid 2-related factor 2/antioxidant responsive element (Nrf2/ARE) small molecule agonists: luciferase reporter gene qHTS assay in human keratinocytes (AID 1919969); note: % is set by controls: 0 for no effect and ±100 for the full control effect; nearly all actives have a fitted effect of over 35% in size
- MEASUREMENT_SETUP: KeratinoSens HaCaT ARE-luciferase, luminescence, 24 h; series mostly up to 92.4 µM
Results filed as inconclusive are left out. Activity calls are given as the source filed them. The call rests on the fitted dose curve.
QUANTITY_KIND: activity, positive = activation

MOLECULE | activity, positive = activation
CC1(C)CC(OC(=O)CCCCCCCCC(=O)OC2CC(C)(C)NC(C)(C)C2)CC(C)(C)N1 | -1.35% [at 19 µM] (inactive)
CCN(CCO)CCCC(C)Nc1ccnc2cc(Cl)ccc12 (stereo not given) | -5.51% [at 8.39 µM] (inactive)
C[C@@H]1CC[C@@]2(OC1)O[C@H]1C[C@H]3[C@@H]4CC[C@H]5C[C@@H](O)CC[C@]5(C)[C@H]4CC(=O)[C@]3(C)[C@H]1[C@@H]2C | -0.515% [at 8.39 µM] (inactive)
CCCCNc1ccc(NCCCC)c2c1C(=O)c1ccccc1C2=O | 14.7% [at 19 µM] (inactive)
O=C(O)C[C@H](O)C[C@H](O)/C=C/c1c(C2CC2)nc2ccccc2c1-c1ccc(F)cc1 | -21.1% [at 19 µM] (inactive)
O=c1[nH]c(=O)c2[nH]c(=O)[nH]c2[nH]1 | 2.42% [at 8.39 µM] (inactive)

Batch request: activity, positive = activation for each of the following molecules.
1. Oc1cn2c(n1)Nc1ccc(Cl)c(Cl)c1C2
2. CCCCCCCCCCCCS(=O)(=O)Cl
3. CCn1cc(C(=O)O)c(=O)c2cc(F)c(N3CCN(C)CC3)cc21
4. FC(F)(F)C(F)(F)C(F)(F)C(F)(F)C(F)(F)C(F)(F)C(F)(F)C(F)(F)C(F)(F)C(F)(F)F

Key:
1. -4.99% [at 19 µM] (inactive)
2. -14% [at 19 µM] (inactive)
3. -5.55% [at 19 µM] (inactive)
4. -2.47% [at 8.39 µM] (inactive)

* * *

- ASSAYED_TARGET: 5-hydroxytryptamine receptor 2A (Homo sapiens) (UniProt P28223)
- Sequence (P28223 whole entry, looked up): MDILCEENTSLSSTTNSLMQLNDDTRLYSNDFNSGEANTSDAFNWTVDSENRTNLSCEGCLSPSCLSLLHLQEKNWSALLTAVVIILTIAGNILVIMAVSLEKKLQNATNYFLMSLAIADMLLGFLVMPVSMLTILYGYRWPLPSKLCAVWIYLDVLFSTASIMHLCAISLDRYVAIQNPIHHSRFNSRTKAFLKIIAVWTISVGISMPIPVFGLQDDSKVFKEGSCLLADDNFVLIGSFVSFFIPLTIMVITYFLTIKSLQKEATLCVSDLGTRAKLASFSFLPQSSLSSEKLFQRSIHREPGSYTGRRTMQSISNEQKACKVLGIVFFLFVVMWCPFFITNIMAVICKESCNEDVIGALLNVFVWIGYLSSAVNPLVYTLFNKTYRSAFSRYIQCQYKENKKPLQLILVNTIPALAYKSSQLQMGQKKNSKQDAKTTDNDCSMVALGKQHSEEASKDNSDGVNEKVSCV
- PROTOCOL_NOTES: 5-hydroxytryptamine receptor 2A (HTR2A) small molecule antagonists, cell-based qHTS assay (AID 1963586); note: nearly all actives have a fitted effect of over 45% in size
- MEASUREMENT_SETUP: HTR2A-CHO cells, DOI-induced calcium flux, fluorescence; series mostly up to 61.5 µM
Records with an inconclusive call do not appear. The source made the active and inactive calls. Calls follow the shape of the full dose curve.
Write down the outcome that applies. Available outcomes: active, inactive

Observe how each entry below is paired with its result.
COMPOUND | ASSAYED_TARGET | CLASS
O=C(CCCCCCCCC#CI)Oc1ccccc1 | 5-hydroxytryptamine receptor 2A (Homo sapiens) (UniProt P28223) | inactive
COc1cc(-c2ccc(N=C=O)c(OC)c2)ccc1N=C=O | 5-hydroxytryptamine receptor 2A (Homo sapiens) (UniProt P28223) | inactive
CCCC(=O)OC(=O)CCC | 5-hydroxytryptamine receptor 2A (Homo sapiens) (UniProt P28223) | inactive

Exercise: Query: recorded result category for `COc1ccc([C@@H]2Sc3ccccc3NC(=O)[C@@H]2O)cc1` in this test
Key: inactive

Exercise: Same question for Cc1ccc2c(c1)c1c3n2CCNC3CCC1 (centres undefined) please.
Key: active

Exercise: Same question for `COC(=O)c1c(C)cc(O)c(C)c1O` please.
Key: inactive

Exercise: Same question for `COc1cccc(-c2ccc(/C=C\CN3CCCCCC3)cc2Cl)c1` please.
Key: inactive

* * *

- ASSAYED_TARGET: 5-hydroxytryptamine receptor 2A (Homo sapiens) (UniProt P28223)
- PROTOCOL_NOTES: 5-hydroxytryptamine receptor 2A (HTR2A) small molecule antagonists, cell-based qHTS assay (AID 1963586); note: nearly all actives have a fitted effect of over 45% in size
- MEASUREMENT_SETUP: HTR2A-CHO cells, DOI-induced calcium flux, fluorescence; series mostly up to 61.5 µM
Records with an inconclusive call do not appear. Active and inactive are the calls of the source. Calls come from the whole dose curve.
Write down the outcome that applies. Available outcomes: active, inactive

Observe how each entry below is paired with its result.
COMPOUND | CLASS
C=CCNc1nc(NCC=C)nc(N2CCN(C(c3ccc(F)cc3)c3ccc(F)cc3)CC2)n1 | active
Cc1nc2ccccn2c(=O)c1CCN1CCC(C(=O)c2ccc(F)cc2)CC1 | inactive
CCCCCCOC(=O)C(C)C | inactive

Exercise: Query: recorded result category for `Cc1cc(C)n(CO)n1` in this test
Key: inactive

Exercise: Same question for CCN1CCCC1CN (configuration not stated) please.
Key: inactive

Exercise: Same question for `COc1ccc(OC)c(OC)c1` please.
Key: inactive

Exercise: Same question for `C=CCON/C(CCC)=C1\C(=O)CC(C)(C)C(C(=O)OC)=C1O` please.
Key: inactive

* * *

- PROTOCOL_NOTES: p53 small molecule agonists, cell-based qHTS assay with rat liver microsomes: qHTS cell viability counter screen (AID 1963580); note: % is set by controls: 0 for no effect and ±100 for the full control effect; nearly all actives have a fitted effect of over 45% in size
- MEASUREMENT_SETUP: p53RE-bla HCT-116 + rat microsomes, ATP viability, 16 h; series mostly up to 66 µM
Results filed as inconclusive are left out. Active and inactive are the calls of the source. The call rests on the fitted dose curve.
QUANTITY_KIND: activity change, negative = cytotoxicity

Some compounds with recorded activity change, negative = cytotoxicity:
COMPOUND | activity change, negative = cytotoxicity
Cc1[nH]cnc1CN1CCc2c(c3ccccc3n2C)C1=O | inactive
COc1ccc2c(c1OC)C(=O)O[C@@H]2[C@H]1c2c(cc3c(c2OC)OCO3)CCN1C | inactive
Oc1ccc(-c2ccc(O)cc2)cc1 | inactive
Cc1c(N)cccc1Cl | inactive

Batch request: activity change, negative = cytotoxicity for each of the following compounds.
1. CC(C)C(=O)OCc1cccc(OC(=O)[C@@H]2N3C(=O)[C@@H](NC(=O)Cc4ccccc4)[C@H]3SC2(C)C)c1
2. CC(C(=O)O)c1ccc(-c2ccccc2)c(F)c1 (configuration not stated)

Key:
inactive
inactive

These measurements were taken from PubChem BioAssay (Tox21).
